- experiment_notes: Second order rate constant for hydroxide ion catalyzed by hydrolysis at 37 degree Centigrade
Lab note: anything with kOH at or over 0.3 M⁻¹ s⁻¹ counts as 1 (yes); the rest go in 0 (no).

// known answers, use as guide
INSERT INTO measurements (smiles_str, class_label) VALUES
  ('CCCNC(=O)COC(=O)c1ccccc1', '1 (yes)'),
  ('CN(CCO)C(=O)COC(=O)c1ccccc1', '0 (no)'),
  ('CCCCN(CCCC)C(=O)COC(=O)c1ccccc1', '0 (no)');

Could you verify whether the entry `CCNC(=O)COC(=O)c1ccccc1` shows kOH of no less than 0.3 M⁻¹ s⁻¹?
1 (yes)

---

- experiment_notes: physchem
- setup_conditions: octanol/water
measure_name: logD
Respond using a number only.

So what's the measured logD for this one? `C=CCN(CC=C)C(=O)COC(=O)c1ccccc1`
2.34

---

- experiment_notes: Half life of ester hydrolysis in 50% human plasma ( pH of 7.4) at 37 degree Centigrade
- setup_conditions: 50% human plasma, pH 7.4
Documented half-life across a set of molecules
Please state the figure in min; there is no need to write the unit.

INSERT INTO results (smiles_str, units, assay_value) VALUES
  ('CNC(=O)COC(=O)c1ccccc1', 'min', 9.3),
  ('CN1CCN(C(=O)COC(=O)c2ccccc2)CC1', 'min', 12.7),
  ('CCCCN(CCCC)C(=O)COC(=O)c1ccccc1', 'min', 3.1),
  ('O=C(OCC(=O)N(CCO)CCO)c1ccccc1', 'min', 0.42),
  ('CN(C)CCN(C)C(=O)COC(=O)c1ccccc1.Cl', 'min', 0.12);

Would you kindly look at the next entry?
So what's the measured half-life for this one? `CC(C)(C)NC(=O)COC(=O)c1ccccc1`
4.2

---

- experiment_notes: physchem
- setup_conditions: 0.01 M HCl
Documented logD across a set of compounds
Respond using a number only.

Reference set, count: 5
INSERT INTO results (smiles_str, measure_name, assay_value) VALUES
  ('CCCNC(=O)COC(=O)c1ccccc1', 'logD', 1.88),
  ('NC(=O)COC(=O)c1ccccc1', 'logD', 0.09),
  ('CC(C)(C)NC(=O)COC(=O)c1ccccc1', 'logD', 2.26),
  ('CNC(=O)COC(=O)c1ccccc1', 'logD', 0.99),
  ('CN(CC(=O)O)C(=O)COC(=O)c1ccccc1', 'logD', 0.67);

So what's the measured logD for this one? `CCNC(=O)COC(=O)c1ccccc1`
1.28

---

- experiment_notes: Half life of ester hydrolysis in 50% human plasma ( pH of 7.4) at 37 degree Centigrade
- setup_conditions: 50% human plasma, pH 7.4
Documented log10 half-life across a set of compounds
In our notation, the value equals log10 of half-life in s.

Reference set, count: 5
INSERT INTO measurements (compound, measure_name, assay_value) VALUES
  ('CN(CC(=O)O)C(=O)COC(=O)c1ccccc1', 'log10 half-life', 3.80),
  ('CCCN(CCC)C(=O)COC(=O)c1ccccc1', 'log10 half-life', 0.92),
  ('CCNC(=O)COC(=O)c1ccccc1 [BENZOIC ACID ETHYLCARBAMOYLMETHYL ESTER]', 'log10 half-life', 2.84),
  ('CCOC(=O)CN(C)C(=O)COC(=O)c1ccccc1', 'log10 half-life', 1.12),
  ('CN(C)C(=O)COC(=O)c1ccccc1', 'log10 half-life', 0.95);

So what's the measured log10 half-life for this one? `CN(CCO)C(=O)COC(=O)c1ccccc1`
1.08

Try this compound next: `CCN(CCO)C(=O)COC(=O)c1ccccc1`
0.98

Try this compound next: CCCNC(=O)COC(=O)c1ccccc1 [BENZOIC ACID PROPYLCARBAMOYLMETHYL ESTER]
2.83

---

- experiment_notes: Second order rate constant for hydroxide ion catalyzed by hydrolysis at 37 degree Centigrade
measure_name: kOH (M⁻¹ s⁻¹)
Please state the figure in M⁻¹ s⁻¹; there is no need to write the unit.

Reference set, count: 2
INSERT INTO results (smiles_str, assay_value) VALUES
  ('NC(=O)COC(=O)c1ccccc1', 1.32),
  ('CN(C)C(=O)COC(=O)c1ccccc1', 0.325);

So what's the measured kOH for this one? `CCN(CC)C(=O)COC(=O)c1ccccc1`
0.273

Try this molecule next: `CN(CC(=O)O)C(=O)COC(=O)c1ccccc1`
0.25

Try this molecule next: `CC(C)(C)NC(=O)COC(=O)c1ccccc1`
0.855

Try this molecule next: `O=C(OCC(=O)N(CCO)CCO)c1ccccc1`
0.23

Try this molecule next: `CCCN(CCC)C(=O)COC(=O)c1ccccc1`
0.237

Try this molecule next: `CN1CCN(C(=O)COC(=O)c2ccccc2)CC1`
0.357

Try this molecule next: `CNC(=O)COC(=O)c1ccccc1`
1.42

Try this molecule next: `CCN(CCO)C(=O)COC(=O)c1ccccc1`
0.273

---

- experiment_notes: physchem
measure_name: solubility (µg/mL)
Please state the figure in µg/mL; there is no need to write the unit.

INSERT INTO results (smiles_str, measure_name, assay_value) VALUES
  ('CN(C)C(=O)COC(=O)c1ccccc1', 'solubility', 8800),
  ('CCCCN(CCCC)C(=O)COC(=O)c1ccccc1', 'solubility', 80),
  ('O=C(OCC(=O)N(CCO)CCO)c1ccccc1', 'solubility', 720000),
  ('CNC(=O)COC(=O)c1ccccc1', 'solubility', 3700),
  ('CCN(CC)C(=O)COC(=O)c1ccccc1', 'solubility', 2000),
  ('C=CCN(CC=C)C(=O)COC(=O)c1ccccc1', 'solubility', 710);

So what's the measured solubility for this one? `CC(C)(C)NC(=O)COC(=O)c1ccccc1`
320

Try this compound next: `NC(=O)COC(=O)c1ccccc1`
4100

Try this compound next: `CCCNC(=O)COC(=O)c1ccccc1`
640

Try this compound next: `CCNC(=O)COC(=O)c1ccccc1`
1200
